Data provenance: patent US12209080B2

EXPERIMENT_SUMMARY: Solubility determination in water by HPLC
Type: physicochemical
SETUP_CONDITIONS: suspension in water, 25° C., 0.5 hours
// label = YES if concentration (solubility in water) is not less than 0.5 µg/mL, otherwise NO

# MOLECULE, CLASS_NAME
data = [
    ("Cc1[nH]c(/C=C2\\C(=O)Nc3ccc(F)cc32)c(C)c1C(=O)N[C@H]1CCN(C(=O)N(C)C)C1 [crystalline form 2]", "NO"),
    ("Cc1[nH]c(/C=C2\\C(=O)Nc3ccc(F)cc32)c(C)c1C(=O)N[C@H]1CCN(C(=O)N(C)C)C1 [crystalline form 5]", "YES"),
    ("Cc1[nH]c(/C=C2\\C(=O)Nc3ccc(F)cc32)c(C)c1C(=O)N[C@H]1CCN(C(=O)N(C)C)C1 [crystalline form 6]", "NO"),
    ("Cc1[nH]c(/C=C2\\C(=O)Nc3ccc(F)cc32)c(C)c1C(=O)N[C@H]1CCN(C(=O)N(C)C)C1 [crystalline form 3]", "YES"),
    ("Cc1[nH]c(/C=C2\\C(=O)Nc3ccc(F)cc32)c(C)c1C(=O)N[C@H]1CCN(C(=O)N(C)C)C1 [crystalline form 1]", "YES"),
    ("Cc1[nH]c(/C=C2\\C(=O)Nc3ccc(F)cc32)c(C)c1C(=O)N[C@H]1CCN(C(=O)N(C)C)C1 [crystalline form 7]", "YES"),
]
